assaySummary: Luminescence Cell-Based Dose Retest to Confirm Inhibitors of Cancer Stem Cells. [Related pubchem assays (depositor defined):AID2717, AID2721]
Type: functional
testConditions: Homo sapiens
Active and inactive are the calls of the source.
Thanks in advance; please answer with one of these: class 1 for active, class 0 for inactive

[
  {
    "molecule": "COC(=O)c1cc(=O)n(Cc2cccs2)/c(=N/c2ccc(F)cc2)s1",
    "qualitativeLabel": "class 1"
  },
  {
    "molecule": "O=C(Nc1ccc2c(c1)OCO2)c1ccc(COc2ccc3c(c2)CCC3)o1",
    "qualitativeLabel": "class 1"
  },
  {
    "molecule": "Cc1ccc(/C=C/C(=O)NCCc2ccccc2)o1",
    "qualitativeLabel": "class 0"
  },
  {
    "molecule": "CC(CNC(S)=Nc1cc(F)cc(F)c1)CSc1ccc(Cl)cc1 (stereo unspecified)",
    "qualitativeLabel": "class 1"
  },
  {
    "molecule": "Cc1ccc(NNC(=O)c2ccno2)cc1Cl",
    "qualitativeLabel": "class 1"
  }
]

Here is another molecule to look at.
Exercise: Which outcome was entered for the molecule `O=C(Nc1ccc(Cl)cc1)N1CCCN(c2ccc(C(F)(F)F)cc2[N+](=O)[O-])CC1` in this test?
Solution: class 1

---

systemUnderTest: Protein RecA (Mycobacterium tuberculosis, UniProt P9WHJ3)
Sequence (P9WHJ3 whole entry): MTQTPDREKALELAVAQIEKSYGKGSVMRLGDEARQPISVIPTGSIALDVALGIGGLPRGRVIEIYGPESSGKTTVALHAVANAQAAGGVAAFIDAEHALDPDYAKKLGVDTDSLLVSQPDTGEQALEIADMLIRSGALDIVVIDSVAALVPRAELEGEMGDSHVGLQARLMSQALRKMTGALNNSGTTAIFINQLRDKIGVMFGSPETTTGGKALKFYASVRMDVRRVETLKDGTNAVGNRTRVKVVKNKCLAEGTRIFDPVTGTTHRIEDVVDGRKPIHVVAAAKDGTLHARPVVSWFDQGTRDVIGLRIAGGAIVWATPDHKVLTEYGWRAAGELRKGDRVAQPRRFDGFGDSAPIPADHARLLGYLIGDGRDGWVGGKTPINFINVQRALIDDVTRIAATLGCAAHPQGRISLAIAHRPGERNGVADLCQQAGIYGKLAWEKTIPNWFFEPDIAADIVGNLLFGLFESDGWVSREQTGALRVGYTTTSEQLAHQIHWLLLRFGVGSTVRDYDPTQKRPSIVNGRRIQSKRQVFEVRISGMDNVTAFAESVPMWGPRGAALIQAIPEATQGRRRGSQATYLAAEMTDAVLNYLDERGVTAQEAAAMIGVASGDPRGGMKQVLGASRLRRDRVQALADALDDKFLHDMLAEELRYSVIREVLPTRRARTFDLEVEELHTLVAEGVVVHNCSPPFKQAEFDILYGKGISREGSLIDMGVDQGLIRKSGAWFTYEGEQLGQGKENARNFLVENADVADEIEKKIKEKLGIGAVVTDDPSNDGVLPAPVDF
assaySummary: Fluorescence Cell-Free Homogeneous Dose Retest to Identify Inhibitors of RecA-Intein Splicing Activity. [Related pubchem assays (depositor defined):AID2097, AID2223, AID489010, AID492950]
Format: functional
Active and inactive are the calls of the source.
Thanks in advance; please answer with one of these: active, inactive

[
  {
    "compound": "COc1ccc(OC)c(NC(=O)Cc2ccc(NC3=NC4CS(=O)(=O)CC4S3)cc2)c1 (stereo unspecified)",
    "qualitativeLabel": "inactive"
  }
]

Exercise: Which outcome was entered for the compound `Cc1ccc(C=C2C(Cl)=C(Cl)C(Cl)=C2Cl)cc1` in this test?
Solution: active

Exercise: Which outcome was entered for the compound `Cc1[nH]nc(O)c1C(c1ccc(Cl)cc1)c1c(O)n[nH]c1C` in this test?
Solution: active

Exercise: Which outcome was entered for the compound `C#CCOc1ccc(/C=C2/C(=O)N(c3cccc(C(=O)O)c3)N=C2C)cc1OC` in this test?
Solution: active

Exercise: Which outcome was entered for the compound `O=C(CCl)N(Cc1cc(O)nc2ccccc12)c1ccccc1` in this test?
Solution: active

Exercise: Which outcome was entered for the compound COc1cc(C2C(C#N)=C(N)Oc3[nH]nc(-c4cccnc4)c32)ccc1OCC(N)=O (stereo unspecified) in this test?
Solution: active
